- target-of-assay: human GLP1-R (Homo sapiens)
- Sequence (P43220 24-463): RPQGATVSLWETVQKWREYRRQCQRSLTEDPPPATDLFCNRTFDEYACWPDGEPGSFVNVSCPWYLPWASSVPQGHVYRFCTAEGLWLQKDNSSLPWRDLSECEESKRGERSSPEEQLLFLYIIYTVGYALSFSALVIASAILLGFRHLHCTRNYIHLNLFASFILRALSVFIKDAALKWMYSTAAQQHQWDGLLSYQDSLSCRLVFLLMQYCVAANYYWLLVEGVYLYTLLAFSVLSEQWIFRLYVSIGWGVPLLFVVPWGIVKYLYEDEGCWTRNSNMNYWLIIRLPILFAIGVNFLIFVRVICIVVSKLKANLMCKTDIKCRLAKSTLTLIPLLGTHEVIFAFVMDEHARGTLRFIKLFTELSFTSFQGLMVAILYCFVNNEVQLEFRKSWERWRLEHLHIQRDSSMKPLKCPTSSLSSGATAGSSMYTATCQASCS
- procedure-text: GLP1-R internalization assay in HEK293 cells
- Assay type: cell-based
Starred links: 1 amine or outer side, 2 acyl side, 3 side chain; linkers in the order of their positions; H or OH if unused. Non-standard residues stand in square brackets, D forms with d. Groups on a side chain read outwards from the residue. No end group written: not given here. *: point of attachment. C20 diacid = O=C(O)CCCCCCCCCCCCCCCCCCC(=O)*; C18 diacid = O=C(O)CCCCCCCCCCCCCCCCC(=O)*; γGlu = O=C(O)[C@H](CCC(=O)[*:2])N[*:1]; αMe4Pal = C[C@](N)(Cc1ccncc1)C(=O)O; αMeL = CC(C)C[C@](C)(N)C(=O)O; Orn = NCCC[C@H](N)C(=O)O; AEEA = NCCOCCOCC(=O)O; Aib = CC(C)(N)C(=O)O
assay-metric: pEC50
Scale note: pEC50 = -log10(concentration in M).

H-Y[Aib]QGTFTSDFSR[αMeL]LDKK([AEEA-AEEA-γGlu-C18 diacid])AQ[Aib]AFIEYLLE[Aib]GPSSGAPPPSGS-NH2 [Example 80]    7.45
H-Y[Aib]QGTFTSDFSK[αMeL]LDKK([AEEA-γGlu-C20 diacid])AQQAFIEYLLA[Aib]GPSSGEPPPSEG-NH2 [Example 19]    7.28
H-Y[Aib]QGTFTSDFSR[αMeL]LDKK([AEEA-γGlu-C20 diacid])AQ[Aib]AFIEYLLE[Aib]GPSSGAPPPGGS-NH2 [Example 42]    7.21

Measured pEC50 of H-Y[Aib]QGTFTSDFSQ[αMeL]LDKK([AEEA-γGlu-C18 diacid])AQ[αMe4Pal]AFIEYLIE[Aib]GESSGAPPPSGE-NH2 [Example 233] : 7.61

Per the record, H-Y[Aib]QGTFTSDFS[Orn][αMeL]LDKK([AEEA-AEEA-γGlu-C20 diacid])AQ[Aib]AFIEYLLE[Aib]GPSSGAPPPGEG-NH2 [Example 70] has pEC50 of 7.22

Lab note: measured pEC50 of H-Y[Aib]QGTFTSDFSR[αMeL]LDKK([AEEA-γGlu-C18 diacid])AQ[αMe4Pal]AFIEYLIE[Aib]GESSGAPPPSGE-NH2 [Example 231] was 7.44

Measured pEC50, Y[Aib]QGTFTSDFSQ[αMeL]LDKK([AEEA-γGlu-C18 diacid])AQ[αMe4Pal]AFIEYLIE[Aib]GESSGAPPPSGS-NH2 [Example 232] : 7.35

Recorded result, H-Y[Aib]QGTFTSDFSR[αMeL]LDKK([AEEA-γGlu-C18 diacid])AQ[Aib]AFIEYLLE[Aib]GPSSGAPPPSGS-NH2 [Example 79] , pEC50: 7.25

response.value for H-Y[Aib]QGTFTSDFSK[αMeL]LDKK([AEEA-γGlu-C20 diacid])AQQAFIEYLLA[Aib]GPSSGAPPPSEG-NH2 [Example 30] (field: pEC50) = 7.15
